// IC50 lookup, one value per entry
Assay target: Dopamine receptor
Assay name: Tested for displacement of rat caudate dopamine receptors by using [3H]spiperone as radioligand
Format: protein assay
Kindly provide the numeric value in nM only, without the unit symbol.

Recorded results for 2 molecules are shown here.
CN(C)CCCN1c2ccccc2Sc2nc(Cl)cnc21: 553
CN(C)CCCN1c2ccccc2Sc2ncc(Cl)nc21: 62.1

# input molecule: `CN(C)CCCN1c2cc(Cl)ccc2Sc2nccnc21` ; wanted: its IC50
9166

Request: `Cc1cnc2c(n1)N(CCCN(C)C)c1ccccc1S2`
382
